So I've got a bunch of variants here, and I need their abundance fitness values.
B1: Ankyrin-2, residues 3571 to 3650; numbered along this chain, Q01484 (parent)
chain: ERLAYIADHLGFSWTELARELDFTEEQIHQIRIENPNSLQDQSHALLKYWLERDGKHATDTNLVECLTKINRMDIVHLME

Variants of: B1
protocol: abundance fitness (aPCA) (normalised: wild type 0, dead -1); higher = more abundant; growth selection in yeast, the domain comes from the species named
run_parameters: Homo sapiens
Answers are plain numbers.

residue_codes | abundance fitness
ERLAYIADHLGFSWTELARELDFTEEQIHQIRIENKNSLQDQSHALLKYWLERDGKHATDTNLVECLTKINRMDIVHLME | -0.125
ERLAYIADHLGFSWTELARELDFTEEQIHQIRIENPNSLQKQSHALLKYWLERDGKHATDTNLVECLTKINRMDIVHLME | -0.034
ERLAYIADHLGFSWTELARELDFTEEQIHQIRIENPNPLQDQSHALLKYWLERDGKHATDTNLVECLTKINRMDIVHLME | -0.832
ERLAYIADHLGFSWTELARELDFTEEQIHQIRIENPNSLQDQSHALLKYWLERDTKHATDTNLVECLTKINRMDIVHLME | -0.026
ERLAYIADHLGFSWTELARELDFTEEQIHQFRIENPNSLQDQSHALLKYWLERDGKHATDTNLVECLTKINRMDIVHLME | 0.023
ERLAYIADHLGFSWTWLARELDFTEEQIHQIRIENPNSLQDQSHALLKYWLERDGKHATDTNLVECLTKINRMDIVHLME | -0.297

The following variants each have a reported value; give each one's abundance fitness.
1. ERLAYIADHLGFSWTELARELDFTEEQIHQIRIENPNSLQDQSHALLKVWLERDGKHATDTNLVECLTKINRMDIVHLME
2. ERLAYKADHLGFSWTELARELDFTEEQIHQIRIENPNSLQDQSHALLKYWLERDGKHATDTNLVECLTKINRMDIVHLME

Outgoing:
0.068
-0.807

The following variants each have a reported value; give each one's abundance fitness.
1. ERLAYIADHLGFSWTELARELDFTEEQDHQIRIENPNSLQDQSHALLKYWLERDGKHATDTNLVECLTKINRMDIVHLME
2. ERLAYIADHLGFSWTELARELDFTEEQIHQIRIENPNSLQDQSTALLKYWLERDGKHATDTNLVECLTKINRMDIVHLME

Outgoing:
-0.895
-0.269

The following variants each have a reported value; give each one's abundance fitness.
1. ERLAYIADHLGFSWTELARELDFTEEQIHDIRIENPNSLQDQSHALLKYWLERDGKHATDTNLVECLTKINRMDIVHLME
2. ERLAYIADHLGMSWTELARELDFTEEQIHQIRIENPNSLQDQSHALLKYWLERDGKHATDTNLVECLTKINRMDIVHLME
3. ERLAYIADHLGFSWTELASELDFTEEQIHQIRIENPNSLQDQSHALLKYWLERDGKHATDTNLVECLTKINRMDIVHLME
4. ERLDYIADHLGFSWTELARELDFTEEQIHQIRIENPNSLQDQSHALLKYWLERDGKHATDTNLVECLTKINRMDIVHLME

Outgoing:
1. -0.183
2. 0.028
3. -0.101
4. 0.039

The following variants each have a reported value; give each one's abundance fitness.
1. ERLAYIADHLGFSWEELARELDFTEEQIHQIRIENPNSLQDQSHALLKYWLERDGKHATDTNLVECLTKINRMDIVHLME
2. ERLAYIRDHLGFSWTELARELDFTEEQIHQIRIENPNSLQDQSHALLKYWLERDGKHATDTNLVECLTKINRMDIVHLME
3. ERLAYIADHLGFSWTELARELDITEEQIHQIRIENPNSLQDQSHALLKYWLERDGKHATDTNLVECLTKINRMDIVHLME

Outgoing:
1: -0.185; 2: 0.087; 3: 0.047
